- measurementTarget: T1, Scer_Rsc1 221-596 WT (Saccharomyces cerevisiae, UniProt P53236 221-596)
- T1 sequence: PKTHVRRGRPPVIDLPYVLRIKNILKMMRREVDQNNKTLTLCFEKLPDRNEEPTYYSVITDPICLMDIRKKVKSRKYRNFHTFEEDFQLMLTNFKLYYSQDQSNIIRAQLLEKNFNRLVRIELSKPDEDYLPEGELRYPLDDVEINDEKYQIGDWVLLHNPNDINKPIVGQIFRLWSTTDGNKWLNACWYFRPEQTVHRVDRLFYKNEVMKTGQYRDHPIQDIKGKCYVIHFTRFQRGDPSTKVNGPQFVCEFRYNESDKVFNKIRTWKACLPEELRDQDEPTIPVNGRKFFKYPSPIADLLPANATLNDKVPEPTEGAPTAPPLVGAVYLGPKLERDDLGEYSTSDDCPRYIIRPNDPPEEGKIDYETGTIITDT
- assayInfo: EMSA
measure: Kd
Give your result as the value with the unit written after it.

[Q] Name the reported Kd value associated with the binder A-rich (polyA) probe (dsDNA) DNA 1: GCATCAGTCTTATAGGAAGAAAAACAAAAAGTCCATCGATCTAG DNA 2: CTAGATCGATGGACTTTTTGTTTTTCTTCCTATAAGACTGATGC
[A] 3.7 µM
